Catalogue of molecules with associated CC50 at 3 days
Measurement Notes: in vitro
Condition: human, TOX HELA CC50 (μM)
Experimental Endpoint: CC50 at 3 days (µM)

[
  {
    "Molecule": "C[C@@H]1c2ccccc2CCN1C(=O)c1cc(-c2ccccn2)n2nc(-c3ccc(N4CC[C@H](C(N)=O)C4)cc3F)cc2n1",
    "Unit Spec": "µM",
    "Value Comparator": "=",
    "Recorded Value": 19
  },
  {
    "Molecule": "C[C@@H]1c2ccccc2CCN1C(=O)c1cc(C2CC2)n2nc(-c3ccc(N4CC[C@H](O)C4)cc3F)cc2n1",
    "Unit Spec": "µM",
    "Value Comparator": "=",
    "Recorded Value": 81.2
  },
  {
    "Molecule": "C[C@@H]1c2ccccc2CCN1C(=O)c1cc(C2CC2)n2nc(-c3ccc(N4CC[C@H](C(N)=O)C4)cc3F)cc2n1",
    "Unit Spec": "µM",
    "Value Comparator": "=",
    "Recorded Value": 29.3
  },
  {
    "Molecule": "C[C@@H]1c2ccccc2CCN1C(=O)c1cc(C2CC2)n2nc(-c3ccc(N4CC[C@@H](S(C)(=N)=O)C4)cc3F)cc2n1 (stereo partly drawn)",
    "Unit Spec": "µM",
    "Value Comparator": "=",
    "Recorded Value": 13.3
  },
  {
    "Molecule": "C[C@@H]1c2ccccc2CCN1C(=O)c1cc(C2CC2)n2nc(-c3ccc(N4CCC(C#N)C4)cc3F)cc2n1 (stereo partly drawn)",
    "Unit Spec": "µM",
    "Value Comparator": ">",
    "Recorded Value": 100
  },
  {
    "Molecule": "COCCOc1cc(N2CC[C@H](C(N)=O)C2)nc(F)c1-c1cc2nc(C(=O)N3CCc4ccccc4[C@H]3C)cc(C3CC3)n2n1",
    "Unit Spec": "µM",
    "Value Comparator": "=",
    "Recorded Value": 47.4
  }
]

====

Measurement Notes: in vitro
Condition: human, TOX HELA CC50 (μM)
Experimental Endpoint: CC50 at 3 days (µM)

[
  {
    "Compound": "C[C@@H]1c2ccccc2CCN1C(=O)c1cc(C2CC2)n2nc(-c3ccc(N4CC(CC(N)=O)C4)nc3F)cc2n1 [Compound 92]",
    "Value Comparator": "=",
    "Recorded Value": 41.5
  },
  {
    "Compound": "C[C@@H]1c2ccsc2CCN1C(=O)c1cc(C2CC2)n2nc(-c3ccc(N4CC[C@@H](CC(N)=O)C4)cc3F)cc2n1 (single isomer, unassigned) [Compound 43]",
    "Value Comparator": "=",
    "Recorded Value": 29.8
  },
  {
    "Compound": "C[C@@H]1c2ccccc2CCN1C(=O)c1cc(C2CC2)n2nc(-c3ccc(N4CC[C@@H](NS(C)(=O)=O)C4)cc3F)cc2n1 [Compound 11]",
    "Value Comparator": ">",
    "Recorded Value": 100
  }
]

====

Measurement Notes: in vitro
Condition: human, TOX HELA CC50 (μM)
Experimental Endpoint: CC50 at 3 days (µM)

[
  {
    "Compound": "C[C@@H]1c2ccccc2CCN1C(=O)c1cc(C2CC2)n2nc(-c3ccc(N4CC[C@@H](C(N)=O)[C@@H]4C)cc3F)cc2n1 (single isomer, unassigned)",
    "Experimental Endpoint": "CC50 at 3 days",
    "Value Comparator": "=",
    "Recorded Value": 33.1
  },
  {
    "Compound": "CNC(=O)[C@H]1CCN(c2cc(F)c(-c3cc4nc(C(=O)N5CCc6ccccc6[C@H]5C)cc(C5CC5)n4n3)cn2)C1",
    "Experimental Endpoint": "CC50 at 3 days",
    "Value Comparator": ">",
    "Recorded Value": 100
  },
  {
    "Compound": "COc1ccc(-c2cc(C(=O)N3CCc4ccccc4[C@H]3C)nc3cc(-c4ccc(N5CC[C@H](C(N)=O)C5)cc4F)nn23)cc1",
    "Experimental Endpoint": "CC50 at 3 days",
    "Value Comparator": ">",
    "Recorded Value": 100
  },
  {
    "Compound": "C[C@@H]1c2ccccc2CCN1C(=O)c1cc(C2CC2)n2nc(-c3ccc(N4CCC(CC(N)=O)CC4)cc3F)cc2n1",
    "Experimental Endpoint": "CC50 at 3 days",
    "Value Comparator": "=",
    "Recorded Value": 28.2
  },
  {
    "Compound": "C[C@@H]1c2ccccc2CCN1C(=O)c1cc(C2CC2)n2nc(-c3ccc(N4CC[C@@H](C(N)=O)[C@H]4C)cc3F)cc2n1 (single isomer, unassigned)",
    "Experimental Endpoint": "CC50 at 3 days",
    "Value Comparator": "=",
    "Recorded Value": 35.9
  },
  {
    "Compound": "C[C@@H]1c2ccccc2CCN1C(=O)c1cc(C2CC2)n2nc(-c3ccc(N4CCC(O)CC4)cc3F)cc2n1",
    "Experimental Endpoint": "CC50 at 3 days",
    "Value Comparator": "=",
    "Recorded Value": 48.1
  },
  {
    "Compound": "C[C@@H]1c2ccccc2CCN1C(=O)c1cc(C2CC2)n2nc(-c3ccc(N4CC[C@H](C(=O)NS(C)(=O)=O)C4)cc3F)cc2n1",
    "Experimental Endpoint": "CC50 at 3 days",
    "Value Comparator": "=",
    "Recorded Value": 52.3
  },
  {
    "Compound": "C[C@@H]1c2ccccc2CCN1C(=O)c1cc(C2CC2)n2nc(-c3ccc(N4CC[C@H](C(N)=S)C4)cc3F)cc2n1",
    "Experimental Endpoint": "CC50 at 3 days",
    "Value Comparator": "=",
    "Recorded Value": 45.4
  },
  {
    "Compound": "COC(=O)N[C@@H]1CCN(c2ccc(-c3cc4nc(C(=O)N5CCc6ccccc6[C@H]5C)cc(C5CC5)n4n3)c(F)c2)C1",
    "Experimental Endpoint": "CC50 at 3 days",
    "Value Comparator": ">",
    "Recorded Value": 100
  },
  {
    "Compound": "CC(=O)N[C@H]1CCN(c2ccc(-c3cc4nc(C(=O)N5CCc6ccccc6[C@H]5C)cc(C5CC5)n4n3)c(F)c2)C1",
    "Experimental Endpoint": "CC50 at 3 days",
    "Value Comparator": "=",
    "Recorded Value": 51.5
  },
  {
    "Compound": "C[C@@H]1c2ccccc2CCN1C(=O)c1cc(C2CC2)n2nc(-c3ccc(N4CCC(O)(CO)C4)cc3F)cc2n1 (single isomer, unassigned)",
    "Experimental Endpoint": "CC50 at 3 days",
    "Value Comparator": "=",
    "Recorded Value": 35.8
  },
  {
    "Compound": "C[C@@H]1c2ccccc2CCN1C(=O)c1cc(C2CC2)n2nc(-c3ccc(N4CCC5(C4)CS(=O)(=O)C5)cc3F)cc2n1",
    "Experimental Endpoint": "CC50 at 3 days",
    "Value Comparator": ">",
    "Recorded Value": 100
  }
]

====

Measurement Notes: in vitro
Condition: human, TOX HELA CC50 (μM)
Catalogue of molecules with associated CC50 at 3 days

[
  {
    "Molecule": "CC(=O)NS(=O)(=O)C1CCN(c2ccc(-c3cc4nc(C(=O)N5CCc6ccccc6[C@H]5C)cc(C5CC5)n4n3)c(F)c2)C1 (stereo partly drawn) [Compound 20]",
    "Unit Spec": "µM",
    "Value Comparator": "=",
    "CC50 at 3 days": 55.9
  },
  {
    "Molecule": "C[C@@H]1c2ccccc2CCN1C(=O)c1cc(-c2cncnc2)n2nc(-c3ccc(N4CC[C@H](C(N)=O)C4)cc3F)cc2n1 [Compound 64]",
    "Unit Spec": "µM",
    "Value Comparator": "=",
    "CC50 at 3 days": 8.9
  },
  {
    "Molecule": "C[C@@H]1c2ccsc2CCN1C(=O)c1cc(C2CC2)n2nc(-c3ccc(N4CC[C@H](C(=O)NS(C)(=O)=O)C4)cc3F)cc2n1 (single isomer, unassigned) [Compound 41]",
    "Unit Spec": "µM",
    "Value Comparator": "=",
    "CC50 at 3 days": 51.1
  },
  {
    "Molecule": "CNC(=O)C1CCN(c2ccc(-c3cc4nc(C(=O)N5CCc6ccccc6[C@H]5C)cc(C5CC5)n4n3)c(F)c2)CC1 [Compound 72]",
    "Unit Spec": "µM",
    "Value Comparator": ">",
    "CC50 at 3 days": 100
  },
  {
    "Molecule": "C[C@@H]1c2ccccc2CCN1C(=O)c1cc(C2CC2)n2nc(-c3cnc(N4CC[C@H](C(=O)NS(C)(=O)=O)C4)cc3F)cc2n1 [Compound 54]",
    "Unit Spec": "µM",
    "Value Comparator": "=",
    "CC50 at 3 days": 77.4
  },
  {
    "Molecule": "C[C@@H]1c2ccccc2CCN1C(=O)c1cc(C2CC2)n2nc(-c3ccc(N4CC(CC(N)=O)C4)cc3F)cc2n1 [Compound 65]",
    "Unit Spec": "µM",
    "Value Comparator": "=",
    "CC50 at 3 days": 39.1
  },
  {
    "Molecule": "CNC(=O)CC1CN(c2ccc(-c3cc4nc(C(=O)N5CCc6ccccc6[C@H]5C)cc(C5CC5)n4n3)c(F)c2)C1 [Compound 66]",
    "Unit Spec": "µM",
    "Value Comparator": "=",
    "CC50 at 3 days": 36.4
  },
  {
    "Molecule": "C[C@@H]1c2ccccc2CCN1C(=O)c1cc(C2CC2)n2nc(-c3ccc(N4CC[C@H](c5nnn[nH]5)C4)cc3F)cc2n1 [Compound 3]",
    "Unit Spec": "µM",
    "Value Comparator": "=",
    "CC50 at 3 days": 43
  },
  {
    "Molecule": "CNC(=O)[C@H]1CCN(c2ccc(-c3cc4nc(C(=O)N5CCc6ccccc6[C@H]5C)cc(C5CC5)n4n3)c(F)n2)C1 [Compound 50]",
    "Unit Spec": "µM",
    "Value Comparator": "=",
    "CC50 at 3 days": 35.1
  },
  {
    "Molecule": "C[C@@H]1c2ccsc2CCN1C(=O)c1cc(C2CC2)n2nc(-c3ccc(N4CC[C@@](C)(CC(N)=O)C4)cc3F)cc2n1 (single isomer, unassigned) [Compound 26]",
    "Unit Spec": "µM",
    "Value Comparator": "=",
    "CC50 at 3 days": 29.6
  },
  {
    "Molecule": "C[C@@H]1c2ccccc2CCN1C(=O)c1cc(C2CC2)n2nc(-c3ccc(N4C[C@H](C)[C@@H](O)C4)cc3F)cc2n1 (stereo in doubt) [Compound 99]",
    "Unit Spec": "µM",
    "Value Comparator": ">",
    "CC50 at 3 days": 100
  },
  {
    "Molecule": "C[C@@H]1c2ccccc2CCN1C(=O)c1cc(C2CC2)n2nc(-c3ccc(N4CC[C@H](c5noc(=O)[nH]5)C4)cc3F)cc2n1 [Compound 4]",
    "Unit Spec": "µM",
    "Value Comparator": "=",
    "CC50 at 3 days": 23
  }
]
